molecules and their reported pKb
# TARGET UNDER TEST: UniProtKB P16610
# Sequence (whole entry): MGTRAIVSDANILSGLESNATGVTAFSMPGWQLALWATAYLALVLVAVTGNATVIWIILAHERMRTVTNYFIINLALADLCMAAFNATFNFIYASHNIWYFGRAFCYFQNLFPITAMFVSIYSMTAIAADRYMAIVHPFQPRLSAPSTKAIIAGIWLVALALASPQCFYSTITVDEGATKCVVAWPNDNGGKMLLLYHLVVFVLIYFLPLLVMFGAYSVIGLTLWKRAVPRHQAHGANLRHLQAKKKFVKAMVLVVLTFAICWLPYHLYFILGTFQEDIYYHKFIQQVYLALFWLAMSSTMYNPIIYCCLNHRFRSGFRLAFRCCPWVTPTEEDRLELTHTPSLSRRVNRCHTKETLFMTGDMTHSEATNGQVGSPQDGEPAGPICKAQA
# PROTOCOL SUMMARY: Antagonist activity at NK2 receptor in rat urinary bladder assessed as effect on beta-Ala8]NKA(4-10)-induced mechanical activity
# Format: functional
# CONDITIONS: filed as antagonist
Lab note: jot down the number only; don't add units.

>>> reported_value("CN1CCN([C@@H]2CC(=O)N[C@@H](Cc3c[nH]c4ccccc34)C(=O)N[C@@H](Cc3ccccc3)C(=O)N[C@H](Cc3ccccc3)CNC2=O)CC1")
9.2
>>> reported_value("O=C1C[C@@H](NC(=O)CN2CCOCC2)C(=O)NC[C@@H](Cc2ccccc2)NC(=O)[C@H](Cc2ccccc2)NC(=O)[C@H](Cc2c[nH]c3ccccc23)N1")
8.5

Given item O=C1C[C@@H](NC[C@H](O)[C@@H](O)[C@H](O[C@@H]2O[C@H](CO)[C@H](O)[C@H](O)[C@H]2O)[C@H](O)CO)C(=O)NC[C@@H](Cc2ccccc2)NC(=O)[C@H](Cc2ccccc2)NC(=O)[C@H](Cc2c[nH]c3ccccc23)N1 , the value recorded as its pKb is 8.2

Value of measured pKb for the entry O=C1C[C@@H](NC2CC[S+]([O-])CC2)C(=O)NC[C@@H](Cc2ccccc2)NC(=O)[C@H](Cc2ccccc2)NC(=O)[C@H](Cc2c[nH]c3ccccc23)N1 (some centres not stated) : 9.1

Summary for this molecule, O=C1CCC(=O)N[C@@H](Cc2c[nH]c3ccccc23)C(=O)N[C@@H](Cc2ccccc2)C(=O)N[C@H](Cc2ccc(Cl)c(Cl)c2)CN1 : pKb is 8.1

The recorded pKb for entry NC(=O)C1CCN(CC(=O)N[C@@H]2CC(=O)N[C@@H](Cc3c[nH]c4ccccc34)C(=O)N[C@@H](Cc3ccccc3)C(=O)N[C@H](Cc3ccccc3)CNC2=O)CC1 equals 9.2

Measured pKb, CN1CCN(CC(=O)N[C@@H]2CC(=O)N[C@@H](Cc3c[nH]c4ccccc34)C(=O)N[C@@H](Cc3ccccc3)C(=O)N[C@H](Cc3ccccc3)CNC2=O)CC1 : 8.5

Data provenance is ChEMBL document CHEMBL1149315.
